Measured values drawn from ChEMBL document CHEMBL2385049 for this set.

- subject-of-test: Serum paraoxonase/arylesterase 1 (Homo sapiens)
- procedure-text: Binding affinity to recombinant paraoxonase-1 (unknown origin) expressed in Escherichia coli after 5 mins by Trp-fluorescence quenching method
Entries and their KSV values follow.
test-readout: KSV

mol=O=c1c(-c2ccc(O)cc2)coc2cc(O)ccc12 test_readout=KSV test_result="0.58 ×10⁵ /M"
mol=CC1(C)C=Cc2c(ccc3c2OC[C@@H](c2ccc(O)cc2O)C3)O1 test_readout=KSV test_result="1.93 ×10⁵ /M"
mol=O=c1c(O)c(-c2ccc(O)cc2)oc2cc(O)cc(O)c12 test_readout=KSV test_result="1.22 ×10⁵ /M"
mol=O=c1cc(-c2ccc(O)c(O)c2)oc2cc(O)ccc12 test_readout=KSV test_result="0.87 ×10⁵ /M"
mol=O=c1c(O)c(-c2ccc(O)c(O)c2)oc2cc(O)cc(O)c12 test_readout=KSV test_result="1.25 ×10⁵ /M"
mol=COc1ccc([C@@H]2CC(=O)c3c(O)cc(O)cc3O2)cc1O test_readout=KSV test_result="0.6 ×10⁵ /M"
mol=O=c1cc(-c2ccc(O)cc2)oc2cc(O)cc(O)c12 test_readout=KSV test_result="1.15 ×10⁵ /M"
mol=O=c1cc(-c2ccc(O)cc2O)oc2ccccc12 test_readout=KSV test_result="0.54 ×10⁵ /M"
mol=O=c1c(-c2ccc(O)cc2)coc2cc(O)cc(O)c12 test_readout=KSV test_result="0.64 ×10⁵ /M"
mol=O=C1C[C@@H](c2ccc(O)cc2)Oc2cc(O)cc(O)c21 test_readout=KSV test_result="0.35 ×10⁵ /M"
mol=O=c1cc(-c2ccc(O)c(O)c2)oc2cc(O)cc(O)c12 test_readout=KSV test_result="1.34 ×10⁵ /M"
